Taken from patent US20230190760A1.

IC50 by entry:
- Test system: KMM-1
- assayOverview: Anti-proliferative activity, 96 hours
- experimentalParameters: KMM-1, 96 h
propertyLabel: IC50 (nM)

compound: O=C1CC[C@H](N2C(=O)c3cccc4c(Cc5ccc(CN6CCOCC6)cc5)ccc2c34)C(=O)N1 (single isomer, unassigned) [Compound 1]
propertyLabel: IC50
reportedValue: 0.059
--
compound: Nc1cccc2c1C(=O)N(C1CCC(=O)NC1=O)C2=O (centres unmarked) [Pomalidomide, reference compound]
propertyLabel: IC50
reportedValue: 527

* * *

- System: activated B-cell DLBCL lines
- assayOverview: Anti-cancer activity in ABC-DLBCL cell lines
- Type: cell-based
- experimentalParameters: three of six responsive, read-out: mean IC50 amongst the responsive lines
propertyLabel: IC50 (nM)

molecule: O=C1CC[C@H](N2C(=O)c3cccc4c(Cc5ccc(CN6CCOCC6)cc5)ccc2c34)C(=O)N1 (single isomer, unassigned) [Compound 1]
experimentalTarget: activated B-cell DLBCL lines
propertyLabel: IC50
reportedValue: 1.6
